Tested on: Plasmodium falciparum
test: GSK_TCMDC: Inhibition of Plasmodium falciparum 3D7 in whole erythrocytes, using parasite LDH activity as an index of growth.
Format: functional, organism-based
stated.conditions: Plasmodium falciparum, 3D7
Mark yes only for XC50 values smaller than 700 nM; exact matches and larger values are no.

[[record]]
compound = "Cn1c(Cc2ccccc2)nnc1Sc1ccc(C#N)c([N+](=O)[O-])c1"
cat = "no"

[[record]]
compound = "O=C(NC1CCN(CCc2c[nH]c3ccc(F)cc23)CC1)c1ncc(-c2ccccc2)[nH]1"
cat = "no"

[[record]]
compound = "COCC(=O)N(Cc1ccccc1-c1ccc(CNCCc2ccccc2)cc1)C1CCN(Cc2ccccc2)CC1"
cat = "no"

[[record]]
compound = "Cn1cncc1C(=O)NC1CCN(c2ccnc(Nc3ccc(F)cc3)n2)C1 (stereo not given)"
cat = "no"

[[record]]
compound = "Oc1ccc(CN2CCN(CCOC(c3ccc(F)cc3)c3ccc(F)cc3)CC2)cc1Cl"
cat = "no"

[[record]]
compound = "CC(C)(CNC(=O)/C=C/c1ccc(Cl)c(Cl)c1)CNc1cc(=O)c2ccccc2[nH]1"
cat = "no"

[[record]]
compound = "CCNc1cc(C(=O)N[C@@H](Cc2ccccc2)[C@H](O)CNC(CC)c2cccc(Cl)c2)cc(N2CCCCS2(=O)=O)c1 (stereo not given in full)"
cat = "yes"

[[record]]
compound = "Cc1cccc2nc(-c3ccc(-c4cccc(CNCCNC(=O)c5ccnn5C)c4)cc3)[nH]c12"
cat = "yes"

[[record]]
compound = "O=C1COc2ccc(S(=O)(=O)N3CCC[C@@H]3CCN3CCC(c4c[nH]c5cnccc45)CC3)cc2N1"
cat = "no"

[[record]]
compound = "CCN(CC)CCCC(C)Nc1c(-c2ccc(C)cc2)cnc2ccccc12 (stereo not given)"
cat = "yes"

[[record]]
compound = "COc1cc(NC(=O)c2c(-c3c(F)cccc3Cl)noc2C)c(OC)cc1Cl"
cat = "no"

[[record]]
compound = "COc1cccc2cc(C(=O)N[C@@H](CC(C)C)C(=O)NC(/C=N/NC(=O)c3ccccc3)CCc3ccccc3)oc12 (stereo not given in full)"
cat = "yes"

[[record]]
compound = "O=S(=O)(c1ccc(Oc2ccccc2)cc1)N(CCC(O)(C(F)(F)F)C(F)(F)F)Cc1cccc(O)c1"
cat = "yes"

[[record]]
compound = "CCOC(=O)c1nc(-c2ccc(Cl)cc2)[nH]c1NC(=S)NCCCN1CCOCC1"
cat = "no"

[[record]]
compound = "c1ccc(Oc2ccc(Nc3ccnc(Nc4cccc(CNCCCN5CCOCC5)c4)n3)cc2)cc1"
cat = "no"

[[record]]
compound = "NC(=O)c1cccc(Nc2nccc(Nc3ccc4[nH]c(-c5ccccc5)cc4c3)n2)c1"
cat = "no"

[[record]]
compound = "N=C(N)Nc1nc(CCCCCCCCc2csc(NC(=N)N)n2)cs1"
cat = "yes"

[[record]]
compound = "CN(C)CCC1CCN(CCS(=O)(=O)c2cccc(Nc3ccc(-c4cccc(F)c4)cn3)c2)CC1"
cat = "no"

[[record]]
compound = "CS(=O)(=O)Nc1ccc2[nH]cc(C3CCN(CCCCCNC(=O)/C=C/c4ccc(Cl)c(Cl)c4)CC3)c2c1"
cat = "no"

[[record]]
compound = "Cc1cccc(-c2nc3cc(NC(=O)c4ccc([N+](=O)[O-])o4)ccc3o2)c1"
cat = "no"

[[record]]
compound = "CCNC(=O)Nc1ccc(-c2cnc(N)c(-c3nc4ccc(OC)cc4[nH]3)c2)cc1"
cat = "yes"

[[record]]
compound = "CO/N=C(\\C)c1ccc2c(c1)CCN(CCC1CCC(NC(=O)c3cccc(-c4noc(C)n4)c3)CC1)CC2 (stereo not given)"
cat = "yes"

[[record]]
compound = "CC(C)CC1(C(=O)OC(C)(C)C)CC(C(=O)OC(C)(C)C)C(c2cccs2)N1C(=O)c1ccc(C(C)(C)C)cc1 (stereo not given)"
cat = "yes"

